Structures can show the parent of a compound that is named as a salt.
quantity measured: melting point

>>> result_value("C[C@@H](CCc1ccccc1)N[C@H]1CC[C@H](c2ccc(O)cc2)CC1 [Example 6d]")
"165 to 170 °C"
>>> result_value("CC(=O)N(Cc1ccccc1)[C@H]1CC[C@H](c2ccc(O)cc2)CC1 [Example 16]")
"227 to 235 °C"
>>> result_value("CN(CCOc1ccccc1)[C@H]1CC[C@H](c2ccc(O)cc2)CC1 (as salt: salt) [Example 30]")
"216 to 220 °C"

Now let's try a different one.
Ask: Which melting point is reported for this compound? CCN(CCCc1ccccc1)[C@H]1CC[C@H](c2ccc(O)cc2)CC1 (as salt: salt) [Example 26]
Result: 192 to 194 °C
